Target: human DR5 (human)
Experiment: SPR (BIAcore X100), human DR5 on CM5 chip, IgG injected, 1:1 Langmuir model
result-type: koff (s⁻¹)

binder	result-type	comparative-sign	recorded-value
DA16 (antibody, V domains shown) VH: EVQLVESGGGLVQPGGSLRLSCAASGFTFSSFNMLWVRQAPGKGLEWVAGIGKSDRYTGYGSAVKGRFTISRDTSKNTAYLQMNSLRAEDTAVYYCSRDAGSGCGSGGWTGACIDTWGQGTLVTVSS VL: DIQMTQSPSSLSASVGDRVTITCSGGDSYAGSYYYGWYQQKPGKAPKTLIYNNNNRPSGVPSRFSGSRSGTDFTLTISSLQPEDFATYYCGSRDSSGAGGFGQGTKVEIK	koff	=	5.53e-05
DA22 (antibody, V domains shown) VH: EVQLVESGGGLVQPGGSLRLSCAASGFTFSSFNMLWVRQAPGKGLEWVAGIGKSDRYTGYGSAVKGRFTISRDDSKSTVYLQMNSLRAEDTAVYYCVRDAGSPCGSGGWTGACIDTWGQGTLVTVSS VL: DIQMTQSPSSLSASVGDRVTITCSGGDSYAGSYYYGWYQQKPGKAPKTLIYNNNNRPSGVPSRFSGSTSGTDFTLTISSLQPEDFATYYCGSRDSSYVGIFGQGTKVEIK	koff	=	3.19e-05
DA5 (antibody, V domains shown) VH: EVQLVESGGGLVQPGGSLRLSCAASGFTFSSFNMLWVRQAPGKGLEWVAGIGKSDRYTGYGSAVKGRFTISRDDSKSTAYLQMNSLRAEDTAVYYCVRDAGSGCGSGGWTGACIDTWGQGTLVTVSS VL: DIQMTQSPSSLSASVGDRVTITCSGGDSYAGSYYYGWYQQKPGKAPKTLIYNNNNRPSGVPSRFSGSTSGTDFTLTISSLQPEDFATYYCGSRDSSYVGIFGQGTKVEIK	koff	<	1e-05
